Data credit: paper PMC10613254

molecular target: bovine brain Arp2/3 complex (bovine, UniProt P61157 1-418; A7MB62 1-394; Q58CQ2 1-372; Q3MHR7 1-300; Q3T035 1-178; Q148J6 …); test: ITC
ATTRIBUTE MEASURED: pKd
Formally, pKd is defined as -log10 of the concentration c, with c in mol/L.

Cort_(18-76) (domain or fragment) GADDWETDPDFVNDVSEKEQRWGAKTVQGSGHQEHINIHKLRENVFQEHQTLKEKELET ... 5.66
Cort_(1-76), cortactin N-terminal acidic domain (NTA, residues 1-76) (domain or fragment) MWKASAGHAVSITQDDGGADDWETDPDFVNDVSEKEQRWGAKTVQGSGHQEHINIHKLRENVFQEHQTLKEKELET ... 5.35

Shift focus to the following entry.
Record summary for MWKASAGHAVSITQDDGGADDWETDPDFVNDVS (domain or fragment) [Cort_(1-33)] : reported pKd = 5.27
